# Test: in vitro
# Format: cell-based
# Particulars: African green monkey
CC50 at 24 h by entry:
Recorded Metric: CC50 at 24 h (µM)

{"Molecule": "Cc1cc(-c2noc(C(F)(F)F)n2)ccc1N1CCN(c2cc(C(=O)N(C)C)no2)CC1 [Compound 28a]", "Recorded Metric": "CC50 at 24 h", "Unit Of Measure": "µM", "Censoring Sign": "=", "Measured Value": 1870}
{"Molecule": "Cc1cc(-c2noc(C(F)(F)F)n2)ccc1SCCCc1cc(C(=O)N(C)C)no1", "Recorded Metric": "CC50 at 24 h", "Unit Of Measure": "µM", "Censoring Sign": ">", "Measured Value": 2270}
{"Molecule": "Cc1cc(-c2noc(C(F)(F)F)n2)ccc1N1CCN(C(=O)c2cc(-c3ccccc3)no2)CC1 [Compound 35a]", "Recorded Metric": "CC50 at 24 h", "Unit Of Measure": "µM", "Censoring Sign": "=", "Measured Value": 1520}
{"Molecule": "Cc1cc(CCCOc2c(C)cc(-c3noc(C(F)(F)F)n3)cc2C)on1", "Recorded Metric": "CC50 at 24 h", "Unit Of Measure": "µM", "Censoring Sign": "=", "Measured Value": 2400}
{"Molecule": "Cc1cc(CCC(=O)Oc2ccc(-c3noc(C(F)(F)F)n3)cc2C)on1 [Compound 12b]", "Recorded Metric": "CC50 at 24 h", "Unit Of Measure": "µM", "Censoring Sign": "=", "Measured Value": 464}
{"Molecule": "Cc1cc(-c2noc(C(F)(F)F)n2)ccc1N1CCN(C(=O)c2c(-c3ccccc3)noc2C)CC1 [Compound 35b]", "Recorded Metric": "CC50 at 24 h", "Unit Of Measure": "µM", "Censoring Sign": "=", "Measured Value": 2010}
{"Molecule": "Cc1cc(CCC(=O)Nc2ccc(-c3noc(C(F)(F)F)n3)cc2C)on1 [Compound 20b]", "Recorded Metric": "CC50 at 24 h", "Unit Of Measure": "µM", "Censoring Sign": "=", "Measured Value": 1740}
